- System: RAW-Dual (murine macrophage reporter line)
- TEST SUMMARY: IRF reporter (Lucia luciferase) activity fold change vs agonist alone; higher = enhanced IRF activity
- SETUP CONDITIONS: modulator concentration 10 µM; agonist: 3'3'-cGAMP 10 ug/mL
Could you label it condition met if measured IRF reporter is 1 or higher, and condition not met otherwise?

Clc1ccc(Nc2nc3nonc3nc2NC2C3CC4CC(C3)CC2C4)cc1 (stereo unspecified)    condition not met
CC(=O)ON=C1C(C)=C(C#N)C2C1C2(C)C (stereo unspecified)    condition not met

[ask] Please tell me: is the compound COc1ccc(Oc2coc3cc(OC(=O)c4ccc(Cl)c([N+](=O)[O-])c4)ccc3c2=O)cc1 at or over 1 in terms of IRF reporter?
[reply] condition not met

[ask] Please tell me: is the compound CN1CC[C@H](c2c(O)cc(O)c3c(=O)cc(-c4ccccc4Cl)oc23)[C@H](O)C1 at or over 1 in terms of IRF reporter?
[reply] condition not met

[ask] Please tell me: is the compound Cc1nc2sccn2c(=O)c1CCN1CCC(=C(c2ccc(F)cc2)c2ccc(F)cc2)CC1 at or over 1 in terms of IRF reporter?
[reply] condition not met

[ask] Please tell me: is the compound Cc1ccc(C2C=C(c3ccccc3)Nc3ncnn32)cc1 (stereo unspecified) at or over 1 in terms of IRF reporter?
[reply] condition met

---

- Test system: RAW-Dual (murine macrophage reporter line)
- TEST SUMMARY: IRF reporter (Lucia luciferase) activity fold change vs agonist alone; higher = enhanced IRF activity
- SETUP CONDITIONS: modulator concentration 10 µM; agonist: MPLA […]
Could you please report measured IRF reporter for the items listed next?
One number for each entry.

Some solved entries appear below for comparison.
CCCOc1ccc(-c2ccc(-c3nc(Cc4ccc(OC)c(OC)c4)no3)cc2)cc1    1.12
Cn1c(=O)cc(N2CCC[C@@H](N)C2)n(Cc2ccccc2C#N)c1=O    1.33
O=C(Nc1ccc([N+](=O)[O-])cc1Cl)c1cccnc1    1.33

List the reported IRF reporter of each molecule below.
1. O=C(Nc1ccc(S(=O)(=O)Nc2ccc(F)cc2)cc1)C(F)(F)F
2. COc1ccc(-c2oc(N=Cc3ccccc3O)c(C#N)c2-c2ccc(OC)cc2)cc1
3. COC12C(COC(N)=O)C3=C(C(=O)C(C)=C(N)C3=O)N1CC1NC12 (stereo not drawn)
4. Nc1ncnc2c1ncn2C1OC(CO)C(O)C1O (stereo not drawn)
5. O=C1[C@H](CC[C@H](O)c2ccc(F)cc2)[C@@H](c2ccc(O)cc2)N1c1ccc(F)cc1

[reply]
[1.14, 1.12, 1.41, 1.23, 1.21]

---

- Tested on: RAW-Dual (murine macrophage reporter line)
- TEST SUMMARY: NF-kB reporter (SEAP) activity fold change vs agonist alone; higher = enhanced NF-kB activity
- SETUP CONDITIONS: modulator concentration 10 µM; agonist: LPS 0.1 ug/mL
PROPERTY MEASURED: NF-kB reporter
Numbers only.

CCOC(=O)N(CC(=O)OC)CP(=O)(O)C(Cc1ccccc1)C(=O)O (stereo unspecified)    1.02
CS(=O)(=O)N(Cc1ccccc1)c1ccc(C(=O)NCCSCc2ccc(Cl)cc2)cc1    0.976
Cl.Fc1ccc([C@@H]2CCNC[C@H]2COc2ccc3c(c2)OCO3)cc1    1
CCCOc1ccc(-c2ccc(-c3nc(Cc4ccc(OC)c(OC)c4)no3)cc2)cc1    0.972
O=S(=O)(c1ccccc1)N1CCOCC1    0.992

Next, consider the following compound.
[ask] Under RAW-Dual (murine macrophage reporter line): report NF-kB reporter of CC(C)NC(=O)CCn1c(=O)c2cc(Cl)ccc2n2c(SCc3ccc(F)cc3)nnc12 .
[reply] 1.01
